- method summary: stability (content) of ingredients included in the Salvia miltiorrhiza extract on storage
- Format: physicochemical
- protocol conditions: extract made with 50% EtOH, 5 days at room temperature
experimental endpoint: Content (mg/g) of ingredient after 5 days of storage at room temperature of extract
Give bare numbers, in mg/g.

Example results:
1) Cc1coc2c1C(=O)C(=O)c1c-2ccc2c1CCCC2(C)C = 4.11
2) O=C(O)[C@H](O)Cc1ccc(O)c(O)c1 = 1.22
3) O=C(/C=C/c1ccc(O)c2c1[C@H](C(=O)O[C@H](Cc1ccc(O)c(O)c1)C(=O)O)[C@@H](c1ccc(O)c(O)c1)O2)O[C@H](Cc1ccc(O)c(O)c1)C(=O)O = 26.21

Let's switch to this compound now.
Give reported Content (mg/g) of ingredient after 5 days of storage at room temperature of extract value for "Cc1coc2c1C(=O)c1ccc3c(C)cccc3c1C2=O"
5.62
